Origin of values: PubChem BioAssay (NCI)

- System: SF-539 CNS
- assay: NCI tumour cell line growth inhibition, 48 h
reported metric: TGI (µM)
Kindly answer with a numeric value in µM, unit omitted.

Query string: Reported TGI, compound CC(C)=CCC/C(C)=C/Cc1c2c(c3oc(-c4ccc(O)c(O)c4)c(O)c(=O)c3c1O)C=CC(C)(C)O2 : ____
Result string: 7

Query string: Request: NC(=O)C1=C(O)[C@@]2(O)C(=O)C3=C(O)c4c(O)cccc4CC3C[C@H]2CC1=O (stereo partly specified)
Result string: 13.4

Query string: Next compound up: CCCCCc1cc(/C=C2/N=C(c3ccc[nH]3)C=C2OC)[nH]c1C
Result string: 0.177

Query string: // repeat for CCCCCC(=O)OC[n+]1ccc2c(C)c3[nH]c4ccc(OC)cc4c3c(C)c2c1 and report
Result string: 1.17

Query string: Also N#CC1=C(N)N=C(N2CCOCC2)C(C#N)C12Nc1ccccc1S2 (stereo unspecified) ?
Result string: 35.5
